Test system: T. gondii strain 2F tachyzoites
method: Test for growth inhibitory activity against T. gondii (β-gal colorimetric proliferation assay in Vero cells)
Assay type: cell-based, Toxoplasma gondii
condition_description: Toxoplasma gondii, 48 h; T. gondii 2F tachyzoites in Vero cells, 2 days
measure: IC50

O=C(Nc1ccc(Cl)cc1C(O)c1ccccc1)c1ccncc1 (stereo not shown) [Inabenfide, inabenfide] ... 17 µM
NOCC(=O)O ... 96.9 µM
O=C(Nc1ccccc1)Nc1cnns1 ... 74.5 µM

Entry CC(C)(C)[C@@H](O)[C@@H](Cc1ccc(Cl)cc1)n1cncn1 ; IC50 = 121 µM

* * *

Tested on: P. falciparum strain 3D7
method: Test for growth inhibitory activity against P. falciparum (infected erythrocytes, Giemsa thin blood film)
Assay type: cell-based, Plasmodium falciparum
condition_description: P. falciparum 3D7, 3 days incubation, Table 1; read-out: ED50 (50% growth inhibition concentration, EC50)
Could you please mark Fulfilled for values of EC50 below 20 µM and Not fulfilled for values at or above it?

# count of solved cases: 5
c1ccc(CNc2ncnc3nc[nH]c23)cc1 [6-Benzylaminopurine, 6-benzyl aminopurine] ... Fulfilled
CC1=CCCC(C)(C)C1C=CC(C)[N+](C)(C)C (stereo not drawn) [FC-907] ... Fulfilled
C/C(=C/CNc1ncnc2nc[nH]c12)CO [cis-Zeatin, cis-zeatin] ... Not fulfilled
Cc1cc(OC(=O)N2CCCCC2)c(C(C)C)cc1[N+](C)(C)C.[Cl-] [AMO-1618] ... Fulfilled
C/C(=C\CNc1ncnc2nc[nH]c12)CO [trans-Zeatin, trans-zeatin] ... Not fulfilled

Okay, now this compound:
Q: Would you kindly verify if EC50 of CC(C)(C)[C@H](O)/C(=C\c1ccc(Cl)cc1)n1cncn1 [Uniconazole P, uniconazole P] is strictly less than 20 µM?
Result: Not fulfilled

* * *

# EC50 per record follows
Test system: P. falciparum strain 3D7
method: Test for growth inhibitory activity against P. falciparum (infected erythrocytes, Giemsa thin blood film)
Type: cell-based, Plasmodium falciparum
condition_description: Plasmodium falciparum, 3D7, Erythrocyte, 72 h, read-out: ED50 (50% growth inhibition concentration, EC50)
State the value with its unit after it.

Guide cases for EC50, answers given:
O=C(Nc1ccccc1)Nc1cnns1 ... 17.5 µM
NOCC(=O)O ... 20.3 µM

Per the record, CC(C)(C)[C@@H](O)[C@@H](Cc1ccc(Cl)cc1)n1cncn1 has EC50 of 27.1 µM

Input O=C(Nc1ccc(Cl)cc1C(O)c1ccccc1)c1ccncc1 (stereo not shown) [Inabenfide, inabenfide] . Output EC50: 4.47 µM
